The measurements presented in this section are drawn from patent US11771685B2.

# assay_procedure: In vivo pharmacokinetics in CD-1 mice
# Design: species or system mouse
# conditions: male, CD-1, mouse, plasma, iv, 5 mg/kg; 3 and 25 at 5 mg/kg
Please provide measured AUC(0-t) for the entries that follow.
Dear colleague, please return just the value in ng·h/mL, with no unit written.

Challenge: Give the value of AUC(0-t) reported for the following: CCC#CCNC1=CC(=O)c2ccccc2C1=O
Response given: 421

Challenge: Given the molecule CC(C)CCOC1=CC(=O)c2ccccc2C1=O , write its reported AUC(0-t).
Response given: 1200

---

# assay_procedure: In vivo pharmacokinetics in CD-1 mice
# Set-up: species or system mouse
# conditions: male, CD-1, mouse, plasma, po, 20 mg/kg, oral 20 mg/kg, 5% DMSO: 95% Neobee
# Protocol: PK studies on 3 and 25 were carried out in CD-1 mice. Three males were dosed via oral gavage needle for oral administration at 20 mg/kg (10 mL/kg) or via intravenous administration at 5 mg/kg (10 mL/kg). Blood samples were taken at time intervals between 5 min and 24 hr from each animal. […] Plasma concentrations were measured as described above to determine a concentration vs. time profile. The area under the plasma concentration vs time curve (AUC) was calculated using the linear trapezoidal method. […]
property_name: AUC(0-t) (ng·h/mL)
The reply should contain only the number, in ng·h/mL.

Challenge: Given the compound CCC#CCNC1=CC(=O)c2ccccc2C1=O , write its reported AUC(0-t).
Response given: 682
